Can you tell me TGI for the items I'm about to list?
Test system: SK-MEL-28 melanoma
Assay: NCI tumour cell line growth inhibition, 48 h

Form field: reported TGI of "CC[O-].CC[O-].O=C1c2ccccc2C(=O)c2c(O)ccc([O-])c21.O=C1c2ccccc2C(=O)c2c(O)ccc([O-])c21.[Ti+4]"
> 100 µM

Look up TGI: "COc1ccc(C(=O)COc2cccc(/C=C3\COc4ccc5ccccc5c4C3=O)c2)cc1"
> 100 µM

Consider the compound "Cc1cc(SCC(=O)c2ccccc2)nc2ccccc12" and give its measured TGI.
> 100 µM

// lookup TGI for "NCc1ccc(-c2ccc(CN)s2)s1"
> 100 µM

Find the recorded TGI belonging to CC(=O)NC1C(OCc2ccccc2)OC(CO)C(O)C1OC(C)C(=O)NC(C(=O)NC(CCC(=O)NCCCC(=O)Nc1ccc2c(c1)CN1C(=O)c3ccccc3C1=N2)C(N)=O)C(C)C (stereo not given) and report it.
> 100 µM

Requested read-out: TGI. Entry: "CC1=CC[C@H](C[C@H](C#CCCCC2OCCO2)O[Si](C(C)C)(C(C)C)C(C)C)C(=O)CC1"
> 100 µM

Form field: reported TGI of "COc1ccc(OC)c(/C=C/C(=O)N/N=C/c2ccc(Cl)cc2)c1"
> 100 µM

Look up TGI for this compound: "Cc1ccc(S(=O)(=O)NC(=O)NCc2ccc(S(N)(=O)=O)cc2)cc1"
> 100 µM

Quick one: TGI of CC(=O)OCC(OC(C)=O)C1C[C@H]2O[C@@H]3[C@H](C[C@H]2O1)O[C@@]1(C[C@@H]3C)C[C@H](C)[C@@H]2O[C@]3(C[C@@H]2O1)C[C@H]1O[C@H]2[C@H](C)[C@H]4OC(=O)C[C@H]5CC[C@@H]6OC7[C@H]8O[C@]9(CC[C@H]%10CC(=O)[C@H](CC[C@H]%11C[C@@H](C)C(=O)C(C[C@@H]4O[C@H]2C[C@H]1O3)O%11)O%10)CC8O[C@@H]7[C@@H](O9)[C@H]6O5 (stereo not given in full) ?
> 1 µM

Given the compound "CCN1C(=O)CNc2ncc(-c3ccc(-c4ncn[nH]4)nc3C)nc21" , what is its reported TGI?
1.44 µM

Would you kindly share the measured TGI for "CC(=O)[CH-]C(=O)c1ccccc1.CC(=O)[CH-]C(=O)c1ccccc1.O=C([O-])c1ccc([O-])cc1.O=C([O-])c1ccc([O-])cc1.[Ti+4]" ?
> 100 µM

Query (compound): COc1ccccc1C[C@@H]1OC2(C=CC(=O)CC2SC(=O)c2ccccc2)O[C@H]1Cc1ccccc1OC (stereo not given in full) ; field requested: TGI
3.22 µM

Entry under review: Cc1ccccc1N(CCC#N)C1=NN(C(=O)CC(=O)Nc2ccccc2)C(c2ccccc2)C1 (stereo not given) . Reported TGI?
> 100 µM

Quick one: TGI for "Cc1cccc(NC(=O)C(=O)Cc2nc3ccccc3[nH]c2=O)c1C" ?
> 100 µM

Give the measured TGI of Cc1[nH]c(=O)[nH]c(=O)c1/C=C/C(=O)NC(CO)CC(C)C (stereo not given) .
> 375 µM

Returns the measured TGI for the input compound. Input: CCCCCCCC(CC(=O)NC(CO)C(=O)NC(CO)CC(C)C)OC(=O)CC(CCCCCCC)OC(=O)CC(CCCCCCC)OC1OC(C)C(O)C(OC2OC(C)C(O)C(OC(C)=O)C2O)C1O (stereo not given)
24.6 µM

Given the compound COC(=O)C1C2OC(C)(C)OC2CN1S(=O)(=O)c1ccc(C)cc1 (stereo not given) , what is its reported TGI?
> 100 µM

I would be grateful if you could share the reported TGI for COc1cc(C2=NN(C(C)=O)C(c3ccc(OC(C)=O)cc3OC(C)=O)O2)c(OC(C)=O)c2ccccc12 (stereo not given) .
23.2 µM

Reported TGI, compound "CN(C)c1ccc(N)cc1" : ____
22.3 µM

Please report the recorded TGI for "CC(=O)Nc1ccc(-c2nc3ccccc3s2)cc1Br" .
> 100 µM

Which TGI is listed for NC(CC(=O)OCc1ccccc1)C(=O)OCc1ccccc1 (stereo not given) ?
> 100 µM

Name the recorded TGI for "CSC1=N/C(=C\c2ccc(C)cc2)C(=O)N1" .
> 100 µM

Could you share which TGI value was measured for "COC(=O)c1ccccc1/C=C1\Cc2c(ccc3c2CCC3)C1=O" ?
> 100 µM

Suppose we examine the compound "O=C(CCl)Nc1ccc(Cl)cc1" ; what TGI value has been reported?
22.1 µM

Please give the measured TGI for this compound: COc1cc(C2C3=C(COC3=O)OC(C)(C)Oc3cc4c(cc32)OCO4)cc(OC)c1O (stereo not given)
> 100 µM
